Experimental system: Glutamate NMDA receptor; Grin1/Grin2c (Rattus norvegicus, UniProt P35439+Q00961)
Sequence (Q00961 whole entry, other chains not shown): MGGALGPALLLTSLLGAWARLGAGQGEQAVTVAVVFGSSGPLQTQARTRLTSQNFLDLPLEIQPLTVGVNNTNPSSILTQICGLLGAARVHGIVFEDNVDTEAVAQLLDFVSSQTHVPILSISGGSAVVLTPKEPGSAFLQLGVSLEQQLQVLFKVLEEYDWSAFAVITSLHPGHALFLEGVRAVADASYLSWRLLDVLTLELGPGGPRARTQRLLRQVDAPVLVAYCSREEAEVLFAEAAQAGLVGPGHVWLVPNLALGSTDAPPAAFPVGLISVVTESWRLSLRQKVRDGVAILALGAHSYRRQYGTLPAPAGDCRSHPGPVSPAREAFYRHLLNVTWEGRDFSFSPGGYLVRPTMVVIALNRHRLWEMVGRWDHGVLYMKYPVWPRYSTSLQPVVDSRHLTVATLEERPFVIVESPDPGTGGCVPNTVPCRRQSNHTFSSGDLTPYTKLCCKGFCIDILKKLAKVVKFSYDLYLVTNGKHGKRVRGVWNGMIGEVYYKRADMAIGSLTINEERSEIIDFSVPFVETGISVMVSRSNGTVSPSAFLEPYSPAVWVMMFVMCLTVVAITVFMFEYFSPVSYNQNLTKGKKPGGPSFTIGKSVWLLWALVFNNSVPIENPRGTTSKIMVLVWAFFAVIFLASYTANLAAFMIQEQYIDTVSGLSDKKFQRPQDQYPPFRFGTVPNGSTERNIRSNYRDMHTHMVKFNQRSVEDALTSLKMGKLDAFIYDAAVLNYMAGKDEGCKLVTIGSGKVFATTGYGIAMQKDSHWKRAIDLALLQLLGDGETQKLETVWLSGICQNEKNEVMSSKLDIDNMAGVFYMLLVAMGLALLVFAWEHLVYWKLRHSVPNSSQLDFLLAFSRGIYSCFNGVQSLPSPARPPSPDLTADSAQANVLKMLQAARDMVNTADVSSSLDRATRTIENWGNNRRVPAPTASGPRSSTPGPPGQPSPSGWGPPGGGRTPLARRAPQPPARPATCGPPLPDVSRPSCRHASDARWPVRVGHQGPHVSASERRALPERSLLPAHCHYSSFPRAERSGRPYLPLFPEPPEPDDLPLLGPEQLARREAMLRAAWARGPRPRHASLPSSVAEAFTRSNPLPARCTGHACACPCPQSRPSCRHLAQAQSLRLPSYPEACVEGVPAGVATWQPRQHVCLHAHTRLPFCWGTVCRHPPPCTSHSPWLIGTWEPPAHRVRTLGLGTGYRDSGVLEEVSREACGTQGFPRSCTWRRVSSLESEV
Experiment notes: Agonist activity at recombinant rat GluN1/GluN2C NMDA receptor expressed in xenopus laevis oocytes in presence of L-glutamate by two-electrode voltage-clamp method
Measurement kind: EC50 (nM)

Smiles notation: N[C@H](CNC(=O)c1cc(Br)c(-c2ccccc2Br)s1)C(=O)O
Measurement kind: EC50
Value unit: nM
Reported: 3

Smiles notation: N[C@H](CNC(=O)c1ccc(-c2cccc3ccccc23)s1)C(=O)O
Measurement kind: EC50
Value unit: nM
Reported: 133

Smiles notation: COc1cccc(F)c1-c1ccc(C(=O)NC[C@@H](N)C(=O)O)s1
Measurement kind: EC50
Value unit: nM
Reported: 110

Smiles notation: COc1ccc(F)cc1-c1ccc(C(=O)NC[C@@H](N)C(=O)O)s1
Measurement kind: EC50
Value unit: nM
Reported: 740

Reference for the values: ChEMBL document CHEMBL6121048
